assay-target: CYP1A2 (Homo sapiens, UniProt P05177)
Construct: from tissue; host or cells: human liver microsomes (pooled in the time-dependent assay)
Sequence (P05177 whole entry): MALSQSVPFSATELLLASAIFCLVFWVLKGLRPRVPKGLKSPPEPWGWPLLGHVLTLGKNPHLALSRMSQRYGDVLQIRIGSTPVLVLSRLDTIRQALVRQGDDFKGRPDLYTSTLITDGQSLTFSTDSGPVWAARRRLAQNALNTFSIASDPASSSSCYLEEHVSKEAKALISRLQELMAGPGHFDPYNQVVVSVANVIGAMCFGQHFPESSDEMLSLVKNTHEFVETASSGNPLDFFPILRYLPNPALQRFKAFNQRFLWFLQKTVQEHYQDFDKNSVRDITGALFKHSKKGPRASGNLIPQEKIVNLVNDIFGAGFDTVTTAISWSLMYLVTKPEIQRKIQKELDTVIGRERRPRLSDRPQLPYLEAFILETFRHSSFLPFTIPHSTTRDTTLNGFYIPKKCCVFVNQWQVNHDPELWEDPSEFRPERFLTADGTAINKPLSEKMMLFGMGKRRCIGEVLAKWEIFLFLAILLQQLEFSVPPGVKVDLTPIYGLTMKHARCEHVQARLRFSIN
procedure-summary: direct inhibition of CYP450 in human liver microsomes
Assay type: in vitro ADME
assay-conditions: 10 uM, human liver microsomes, % of non-inhibited control; read-out: CYP1A2 T0 % activity
Hi there, I'd appreciate the recorded activity at 10 µM for every entry that follows.
Answers are plain numbers, in %.

These recorded examples may help you get a feel for the data.
CO[C@H]1CC[C@H](NC(=O)c2cc(C3CCOCC3)nc(-c3cncn3C)n2)CC1 [Compound 199]
96
Cn1cncc1-c1ccnc(C(=O)N[C@H]2CC[C@H](O)CC2)n1 [Compound 256]
92

For the 3 molecules below, give their activity at 10 µM values.
1. CO[C@H]1CC[C@H](NC(=O)c2cc(C3CCC(F)(F)CC3)nc(-c3cncn3C)n2)CC1 [Compound 289]
2. [2H]c1nc([2H])n(-c2nc(C)cc(C(=O)N[C@H]3CC[C@H](OCCOC)CC3)n2)c1[2H] [Comparator Compound A, reference compound]
3. CO[C@H]1CC[C@H](NC(=O)c2cc(C3(C)COC3)nc(-c3cncn3C)n2)CC1 [Compound 295]

a:
[95, 98, 98]
